Molecular target: T1, apical domain of human CD71 (human, UniProt P02786 189-383, limits assumed)
T1 construct: domain: apical domain; Screen 4 panned on human apical domains, the ELISA text says only 'apical domain'
T1 sequence (P02786 189-383 limits assumed): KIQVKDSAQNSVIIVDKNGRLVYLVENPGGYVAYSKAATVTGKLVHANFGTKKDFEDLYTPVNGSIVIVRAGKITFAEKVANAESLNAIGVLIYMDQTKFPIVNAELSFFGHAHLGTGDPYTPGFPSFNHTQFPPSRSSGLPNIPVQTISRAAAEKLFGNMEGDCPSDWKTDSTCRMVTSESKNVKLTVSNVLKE
Assay: primary ELISA; note: test concentration or dose not given here
measuredMetric: RLU (RLU)

[I] CD71-binding FN3 domain of SEQ ID NO: 509 (designed binder) MLPAPKNLVVSRVTEDSARLSWTAPDAAFDSFEIGYWENAYKGEAIVLTVPGSERSYDLTGLKPGTEYEVFIGGVKGGVWSVPLSAIFTT
[II] CD71-binding FN3 domain of SEQ ID NO: 467 (designed binder) MLPAPKNLVVSRVTEDSARLSWTAPDAAFDSFFIGYLEPQPPGEAIQLLVPGSERSYDLTGLKPGTEYNVTIQGVKGGFPSDPLVAYSTT
# input Lower value for measured RLU? Options: I , II Label of pick, please.
# output II
(II: 2e+06 RLU, I: 4.6e+06 RLU)

# credit: patent US20260151494A1
